Documented TGI across a set of compounds
# System: HCC-2998 colon
# EXPERIMENT_NOTES: NCI tumour cell line growth inhibition, 48 h

Observe how each entry below is paired with its result.
compound="CCCC(=O)NC(Nc1ccc(S(=O)(=O)Nc2cc(C)on2)cc1)(C(=O)OCC)C(F)(F)F (stereo not drawn)" value="> 100 µM"
compound=Cn1ncnc1[C@H]1c2n[nH]c(=O)c3cc(F)cc(c23)N[C@@H]1c1ccc(F)cc1 value="> 100 µM"
compound="CCC1(c2ccccc2)Sc2ccccc2-n2cccc2C1=O (stereo not drawn)" value="> 10 µM"
compound="CC1(C)CC(O)C(C)(C)[C@@H](O)C1 (stereo partly drawn)" value="> 100 µM"

Pending compound:
input: Input "CCOC(C[C@H](O[Si](C)(C)C(C)(C)C)[C@H]1COC(=S)S1)OCC" , output reported TGI.
output: > 100 µM

----------
# Test system: UACC-62 melanoma
# EXPERIMENT_NOTES: NCI tumour cell line growth inhibition, 48 h
READOUT_NAME: TGI (µM)
Numbers only here, please. The scale is µM.

Some solved cases for reference:
compound=CCCCCCCC/C=C\CCCCCCC/C=C1\C[C@](/C=C/C(=O)OC)(CO)OC1=O test_system="UACC-62 melanoma" readout_name=TGI value=20.1
compound=CC1=C(c2cccc(O)c2)[C@H](c2ccc(OCCN3CC(CF)C3)cc2)Oc2ccc(O)cc21 test_system="UACC-62 melanoma" readout_name=TGI value=22.6
compound="O=C1C=CC(=O)C2=C1[C@@H](O)C1CC=CC3C(=O)O[C@@H]2C31 (stereo partly drawn)" test_system="UACC-62 melanoma" readout_name=TGI value=35.8
compound=O=C(Nc1ccc(Br)cc1F)c1cc(I)ccc1O test_system="UACC-62 melanoma" readout_name=TGI value=4.43

Now for the compound whose TGI we want.
input: Supply measured TGI of "O=C(/C=C/Sc1cc(C(F)(F)F)cc(C(F)(F)F)c1)c1ccc(Cl)cc1" in your reply.
output: 15.6

----------
TGI for assorted compounds
# System: CAKI-1 renal
# EXPERIMENT_NOTES: NCI tumour cell line growth inhibition, 48 h
Lab book: enter the figure in µM, no units written.

Consider the following illustrative entries.
compound="COC(=O)C1(Cc2ccc3c(c2)CCC3)Cc2ccccc2C1O (stereo not given)" value=52.3
compound="Cc1ccccc1OCC(O)CN1CCN(c2ccc(Cl)cc2)CC1 (stereo not given)" value=26.6
compound=Cc1ccc([S@](=O)c2occc2C=O)cc1 value=30.7

input: Input "CCNCCCn1c2c(c3ccc(Cl)cc3c1=O)C(=O)c1cc(OC)cnc1-2" , output reported TGI.
output: 16.8

----------
Parameter: TGI. Scope: all listed entries.
# System: BT-549 breast
# EXPERIMENT_NOTES: NCI tumour cell line growth inhibition, 48 h

Solved entries (count: 5):
compound="COC1CC(O[C@H]2CC[C@@]3(C)[C@H](CC[C@@H]4[C@@H]3CC[C@]3(C)[C@@H](C5=CC(=O)OC5)[C@@H](OC(C)=O)C[C@]43O)C2)OC(C)C1O (stereo partly specified)" value="< 0.01 µM"
compound="C#CC#CC#CC#CC#CC#CC#CC#CCC1OCC(COC(=O)O[C@@H](C(=O)O[C@H]2C[C@@]3(O)[C@@H](OC(=O)c4ccccc4)[C@@H]4[C@]5(OC(C)=O)CO[C@@H]5C[C@H](O)[C@@]4(C)C(=O)[C@H](OC(C)=O)C(=C2C)C3(C)C)[C@@H](NC(=O)c2ccccc2)c2ccccc2)O1 (stereo partly specified)" value="> 33.3 µM"
compound="COc1cccc(N2C(=O)C3c4[nH]c5ccccc5c4C4CCCC4C3C2=O)c1 (stereo unspecified)" value="> 10 µM"
compound=CCN(CC)N1C(=O)[N+](CC)(CC)N=C1[O-] value="> 100 µM"
compound=O=C1Nc2ccc(Br)cc2C1=Nc1cccnc1 value="33.2 µM"

Pending compound:
input: Tell me TGI reported for "O=C(Nc1ccc(Br)cc1F)c1cc(I)ccc1O"
output: 6.43 µM
